- Tested on: HCC 2998
- Method description: NCI tumour cell line growth inhibition, 48 h
Calls of active or inactive are those of the source. Rule as the data show it: active = GI50 up to about 1.1 µM and inactive = higher.
Outcome codes: active, inactive

# Compound, Cat
rows = [
    ("O=C(O)C1(CC(CCCN2CCCCC2)c2ccccc2)CCCC1 (stereo unspecified)", "inactive"),
    ("C=C[C@@]1(C)CC(=O)[C@]2(O)[C@@]3(C)[C@@H](OC(C)=O)CCC(C)(C)[C@@H]3[C@H](OC(C)=O)[C@H](OC(C)=O)[C@@]2(C)O1", "inactive"),
    ("C#CCn1c(=O)c(C#N)c(O)c2cc3ccccc3nc21", "inactive"),
    ("C(#Cc1ccccc1)SC1=C(c2ccccc2)S/C(=C(\\SC#Cc2ccccc2)c2ccccc2)S1", "inactive"),
    ("COC(=O)C(COC(=O)/C=C/c1ccc(OC(C)=O)c(OC(C)=O)c1)OC(=O)/C=C/c1ccc(OC(C)=O)c(OC(C)=O)c1 (stereo unspecified)", "inactive"),
    ("Cn1ccc2c(C(=O)c3ccccc3)cccc2c1=O", "inactive"),
    ("COC(=O)c1ccc(C)cc1C1CN=NC12Cc1cc(C)ccc1C2=O (stereo unspecified)", "inactive"),
    ("COc1cc2cc(C(=O)N3CC(CCl)c4c3cc([N+](C)(C)Cc3ccc([N+](=O)[O-])n3C)c3ccccc43)[nH]c2c(OC)c1OC (stereo unspecified)", "active"),
    ("COc1cc(C(=O)N(C)N(C)C)cc(OC)c1OC", "inactive"),
    ("CCCCCCCCCC(=O)CC(=O)c1ccc(O)cc1O", "inactive"),
    ("C[C@]12C=CC(=O)C=C1CC[C@@H]1[C@@H]2C(=O)C[C@@]2(C)[C@H]1CC[C@]2(O)C(=O)CO", "inactive"),
    ("COc1ccc(-c2nc(N)nc(-c3cc(C)ccc3O)c2Cl)cc1", "inactive"),
    ("Cc1nc2ccc(Cl)cc2c(Cl)c1CCCl", "inactive"),
    ("Cc1c(C)c2c(c(N)c1C#N)C(=O)N(OS(=O)(=O)c1ccccc1)C2=O", "inactive"),
    ("COc1ccc2c(c1)CC1C3(CCCCC23)CC[N+]1(C)C (stereo unspecified)", "inactive"),
    ("CCN(CC)CC(=N)N(CC)c1ccccc1", "inactive"),
    ("Cc1ccc(-c2n[nH]c(=O)[nH]2)cc1", "inactive"),
    ("Cc1cc(NC2=CC(=O)C(=O)c3ccccc32)no1", "inactive"),
    ("CC1=CCC(C(C)(C)NC(=O)c2ccccc2)C/C1=N/O (stereo unspecified)", "inactive"),
    ("COCCOC1=C(Cl)C(=O)c2c(O)ccc(O)c2C1=O", "inactive"),
    ("CC(C)(C)[Si](C)(C)OC1CCOC1(O)c1ccccn1 (stereo unspecified)", "inactive"),
]
